From: PubChem BioAssay (Tox21)

TEST DETAILS: qHTS RealTime-Glo MT Cell Viability Assay in HepG2 cells - 24 hour (AID 1224867); also: nearly all actives have a fitted effect of over 50% in size
EXPERIMENTAL SETUP: RealTime-Glo luminescence; series mostly up to 76.8 µM
Records with an inconclusive call do not appear. Activity calls are given as the source filed them. Calls follow the shape of the dose curve; as a rule, active = well fitted cell-killing curve with a large enough effect in the repeat runs; inconclusive = weak or mixed curves; inactive = flat fitted curve, though single readings scatter.
Outcome field: choose from class 1 (active), class 0 (inactive)

Call for entry COc1c2c(cc3c1OCO3)CCN(C)C2 :
class 0

----------
TEST DETAILS: qHTS assay to identify small molecule antagonists of the estrogen related receptor (ERR) signaling pathway from Tox21 library - cell viability counter screen (AID 1224834); also: nearly all actives have a fitted effect of over 30% in size
EXPERIMENTAL SETUP: ERR reporter cells viability, CellTiter-Fluor, 17.5 h; series mostly up to 92.4 µM
Records with an inconclusive call do not appear. Calls of active or inactive are those of the source. Calls come from the whole dose curve; as a rule, active = well fitted cell-killing curve with a large enough effect in the repeat runs; inconclusive = weak or mixed curves; inactive = flat fitted curve, though single readings scatter.
Outcome field: choose from True for active, False for inactive

Call for entry CC(C)=CCN1CC[C@@]2(C)c3cc(O)ccc3C[C@@H]1[C@@H]2C :
False

Call for entry COc1ccc2c3c1O[C@H]1[C@H](O)CC[C@H]4[C@@H](C2)N(C)CC[C@@]341 :
False

Call for entry Cc1cnc2c(C(=O)O)c(Cl)ccc2c1 :
False

Call for entry CCC[CH2][Sn]([CH2]CCC)([O]C(C)=O)[O]C(C)=O :
True

Call for entry CC(=O)[O-].CC(=O)[O-].O.O.O.[Pb+2] :
False

Call for entry O.O.O.O=C([O-])[C@H]([O-])[C@@H]([O-])C(=O)[O-].O=C([O-])[C@H]([O-])[C@@H]([O-])C(=O)[O-].[K+].[K+].[Sb+3].[Sb+3] :
True

Call for entry COc1cnc(OC)n2nc(NS(=O)(=O)c3c(OCC(F)F)cccc3C(F)(F)F)nc12 :
False

Call for entry CCCN :
False

Call for entry CC1(C)[C@H](/C=C2\CCSC2=O)[C@@H]1C(=O)OCc1coc(Cc2ccccc2)c1 :
False

Call for entry N#Cc1c2ccccc2cc2ccccc12 :
False

Call for entry C[C@]12CC[C@H]3[C@@H](CCC4=CC(=O)CC[C@@H]43)[C@@H]1CC[C@@H]2OC(=O)CCc1ccco1 :
False

----------
TEST DETAILS: A CellTox Green Cytotoxicity Assay to monitor cytotoxicity in HepG2 cells - 40 hour (AID 1224879); also: nearly all actives have a fitted effect of over 40% in size
EXPERIMENTAL SETUP: CellTox Green fluorescence; series mostly up to 76.8 µM
Results filed as inconclusive are left out. Active and inactive are the calls of the source. Calls follow the shape of the dose curve; as a rule, active = well fitted activation curve with a large enough effect in the repeat runs; inconclusive = weak or mixed curves; inactive = flat fitted curve, though single readings scatter.
Outcome field: choose from YES = active, NO = inactive

Please review the following examples before continuing.
> print(dat)
                                    molecule  answer.label
 1               CCC(C)Br (stereo not given)            NO
 2                                     ClCBr            NO
 3  CN1C(=O)[C@@H](NC(=O)c2cc3ccccc3[nH]2)N=C(c2ccccc2)c2ccccc21            NO
 4                                   BrCCCBr            NO
 5                               O=S(=O)(O)F            NO
 6        Oc1ccc([C@H]2CNCc3c2ccc(O)c3O)cc1O           YES
 7  CC1(C)[C@H](/C=C2\CCSC2=O)[C@@H]1C(=O)OCc1coc(Cc2ccccc2)c1            NO
 8  CCn1cc[n+](C)c1 (tested in a mixture with another compound)            NO
 9  CN1C2CCC(C)(C)C1CC(OC(=O)C(O)(c1cccs1)c1cccs1)C2 (stereo not given)            NO
10  CC(O)C(=O)[O][Hg][c]1ccccc1 (stereo not given)           YES

Call for entry CCCCCCC[CH2][Sn]([Cl])([Cl])[CH2]CCCCCCC :
NO

Call for entry c1cc[n+]2c(c1)-c1cccc[n+]1CC2 :
NO

Call for entry CC1CCCC1 :
NO

Call for entry O=C(Cl)c1ccccc1F :
NO

Call for entry CCOP(=O)(OCC)Oc1nc(Cl)c(Cl)cc1Cl :
NO

Call for entry Clc1ccc(C2(Cn3cncn3)OCCO2)c(Cl)c1 :
NO

Call for entry O.O.O.O.O.O.O=S(=O)([O-])[O-].[Ni+2] :
NO

Call for entry CC(=O)[O][Pb]([c]1ccccc1)([c]1ccccc1)[c]1ccccc1 :
YES

Call for entry CCC[CH2][Sn]([CH2]CCC)([O]C(C)=O)[O]C(C)=O :
YES

Call for entry O=C(CCCCl)c1ccc(F)cc1 :
NO

Call for entry CC(Cl)CCl (stereo not given) :
NO

Call for entry O=Cc1ccccc1 :
NO

Call for entry O=C(N[C@@H]1N=C(c2ccccc2F)c2cccc3c2N(CC3)C1=O)c1cc2ccccc2[nH]1 :
YES

Call for entry CN(C)c1ccc(N)cc1 :
NO

Call for entry CCOC(=O)CCN(SN(C)C(=O)Oc1cccc2c1OC(C)(C)C2)C(C)C :
NO

Call for entry CN1CCc2cc3c(cc2C1O)OCO3 (stereo not given) :
NO
